- Target or system: T1, hGPVI-hFc fusion protein (human)
- T1 construct: also called GPVI-Fc; human GPVI-Fc fusion protein
- Experiment: DELFIA competition assay: Fab preincubated with GPVI-Fc (3 µg/ml), binding to collagen-coated plate, Test 2
Each entry below lists one item and its recorded IC50 value.
All answers are understood in µg/mL, so give the number only.

humanized anti-GPVI Fab VL1/VH1 (Fab, V domains shown, Recombinant Fab: VH fused to CH1 of human IGHG1 (Q569F4), HC ends in DKTHT; VL fused to human constant kappa (Q502W4); also called VL1 with VH1) VH: QVQLQESGPGLVAPSQSLSITCTVSGFSLTGYGVNWVRQPPSRGLEWLGMIWGDGSTDYQSTLKSRLSISKDTSKSQVFLKMNSLTTDDTARYYCARDLPMDYWGQGTSVTVSS VL: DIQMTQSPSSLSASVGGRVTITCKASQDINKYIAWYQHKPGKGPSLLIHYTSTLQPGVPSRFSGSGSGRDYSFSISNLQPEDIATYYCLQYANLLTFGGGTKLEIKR
0.75

Query: Reported IC50, binder humanized anti-GPVI Fab VL3/VH4 (Fab, V domains shown, Recombinant Fab: VH fused to CH1 of human IGHG1 (Q569F4), HC ends in DKTHT; also called VL3 with VH4) VH: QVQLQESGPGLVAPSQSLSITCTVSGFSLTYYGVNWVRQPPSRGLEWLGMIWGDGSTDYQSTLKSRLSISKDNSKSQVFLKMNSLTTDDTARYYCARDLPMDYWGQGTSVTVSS VL: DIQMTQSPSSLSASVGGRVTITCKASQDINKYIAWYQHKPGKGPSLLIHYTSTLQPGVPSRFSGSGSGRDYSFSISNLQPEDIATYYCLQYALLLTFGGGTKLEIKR : ____
Response: 0.72

All values here come from patent US20150098939A1.
